Source of measurements: paper PMC10351726

- measured-on: T1, HER2-ECD biotinylated at single site (Homo sapiens, UniProt P04626, biotinylated at single site)
- T1 construct: human HER2 extracellular domain; also called ECD of HER2; source: bought: Sino Biological
- assay-overview: SPR; Biacore 8K; biotinylated HER2-ECD on a streptavidin chip; sdAbs injected in multi-cycle kinetics, 2-fold dilution series from 5 nM; 100 μL/min, 25°C, HBS-EP+ pH 7.4; 1:1 model
- condition: both partners purified
parameter-measured: binding result

binder: humanised NM-02 variant N (VHH, humanised variant N of NM-02, with parental back mutations; source: ExpiCHO-S, transiently transfected, purified (HisTrap Excel, SEC)) VHH: QVQLQESGGGLVQPGGSLRLSCSASGFTFDDSDMGWYRQAPGNECELVSSISSDGSTYYADSVKGRFTISQDNSKNTLYLQMNSLRPEDTGVYYCAAEGHRYELGTCAALDYWGRGTLVTVSS
measured-result: binds
//
binder: humanised NM-02 variant M (VHH, humanised variant M of NM-02, with parental back mutations; source: ExpiCHO-S, transiently transfected, purified (HisTrap Excel, SEC)) VHH: QVQLQESGGGLVQPGGSLRLSCSASGFTFDDSDMGWYRQAPGNECELVSSISSDGSTYYADSVKGRFTISQDNSKNTVYLQMNSLRAEDTGVYYCAAEGHRYELGTCAALDYWGRGTLVTVSS
measured-result: binds
//
binder: humanised NM-02 variant D (VHH, humanised variant D of NM-02; source: ExpiCHO-S, transiently transfected, purified (HisTrap Excel, SEC)) VHH: QVQLQESGGGLVQPGGSLRLSCAASGFTFDDSDMGWYRQAPGNECELVSSISSDGSTYYADSVKGRFTISQDNSKNTLYLQMNSLRAEDTGVYYCAAEGHRYELGTCAALDYWGRGTLVTVSS
measured-result: binds
